Test system: G4 MYC (DNA, G4) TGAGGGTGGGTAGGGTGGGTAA
Assay: fluorescent intercalator displacement
Details: 100 mM K+; apparent; 10 mM lithium cacodylate pH 7.3; thiazole orange displaced
measured-parameter: apparent Kd (nM)
Give your result in nM as a bare value.

Here's what some known entries look like.
NCCOc1cc(NC(=O)c2ccc3c(c2)/N=N/c2cc(-c4ccc5cccnc5c4)ccc2CC3)nc2ccccc12 ... 1000
NCCOc1cc(NC(=O)c2ccc3c(c2)/N=N/c2cc(-c4cnc5ccccc5c4)ccc2CC3)nc2ccccc12 ... 970
NCCOc1cc(NC(=O)c2ccc3c(c2)/N=N/c2cc(-c4ccc(N5CCCCC5)cc4)ccc2CC3)nc2ccccc12 ... 760

Now for the molecule whose apparent Kd we want.
Look up and state reported apparent Kd for `NCCOc1cc(NC(=O)c2ccc3c(c2)/N=N/c2cc(-c4ccc5ncccc5c4)ccc2CC3)nc2ccccc12` 940
